Tested on: Candida albicans
test-summary: Antifungal activity against Candida albicans at 100 ug/ml after 48 hr by disk diffusion method
Type: functional
recorded-conditions: read-out: DIZ
endpoint-name: zone of inhibition at 100 µg/mL (mm)

                           molecular_string  units_text  test_result
0  CN1CCN(CN2C(=O)N(c3ccccc3)C(=O)C2(c2ccccc2)c2ccccc2)CC1          mm           13
1  O=C1N(c2ccccc2)C(=O)C(c2ccccc2)(c2ccccc2)N1Cn1ccnc1          mm           11
2  O=C1NC(c2ccccc2)(c2ccccc2)C(=O)N1Cn1cnc2ccccc21          mm           24
3  O=C1N(c2ccccc2)C(=O)C(c2ccccc2)(c2ccccc2)N1Cn1nnc2ccccc21          mm           12
4  CN1CCN(CN2C(=O)NC(c3ccccc3)(c3ccccc3)C2=O)CC1          mm           13

----------
System: Escherichia coli
test-summary: Antibacterial activity against Escherichia coli at 200 ug/ml after 24 hr by disk diffusion method
Format: functional
recorded-conditions: read-out: DIZ
endpoint-name: zone of inhibition at 200 µg/mL (mm)

>>> print(df.to_string())
                           molecular_string  measurement_target  test_result
0  O=C1N(c2ccccc2)C(=O)C(c2ccccc2)(c2ccccc2)N1Cn1nnc2ccccc21    Escherichia coli           14
1  O=C1N(c2ccccc2)C(=O)C(c2ccccc2)(c2ccccc2)N1CNc1nc2ccccc2s1    Escherichia coli           17
2  CCN(CC)CN1C(=O)N(c2ccccc2)C(=O)C1(c1ccccc1)c1ccccc1    Escherichia coli           18
3  CN1CCN(CN2C(=O)NC(c3ccccc3)(c3ccccc3)C2=O)CC1    Escherichia coli           16
4  O=C1N(c2ccccc2)C(=O)C(c2ccccc2)(c2ccccc2)N1Cn1ccnc1    Escherichia coli           19

----------
Test system: Escherichia coli
test-summary: Antibacterial activity against Escherichia coli at 200 ug/ml after 24 hr by disk diffusion method
Type: functional
recorded-conditions: read-out: DIZ
Let's look at some compounds and their measured zone of inhibition at 200 µg/mL.
endpoint-name: zone of inhibition at 200 µg/mL (mm)

>>> df
                           molecular_string  test_result
0  O=C1N(c2ccccc2)C(=O)C(c2ccccc2)(c2ccccc2)N1CN1CCOCC1           15
1  O=C1NC(c2ccccc2)(c2ccccc2)C(=O)N1CNc1nccs1           24
2  CN(C)CN1C(=O)N(c2ccccc2)C(=O)C1(c1ccccc1)c1ccccc1           18
3  O=C1NC(c2ccccc2)(c2ccccc2)C(=O)N1CN1C(=O)c2ccccc2C1=O           20
4  O=C1N(c2ccccc2)C(=O)C(c2ccccc2)(c2ccccc2)N1Cn1cnc2ccccc21           18

----------
System: Candida albicans
test-summary: Antifungal activity against Candida albicans at 200 ug/ml after 48 hr by disk diffusion method
Format: functional
recorded-conditions: read-out: DIZ
endpoint-name: zone of inhibition at 200 µg/mL

>>> df
                           molecular_string                    endpoint_name  test_result
0  O=C1N(c2ccccc2)C(=O)C(c2ccccc2)(c2ccccc2)N1CNc1nccs1  zone of inhibition at 200 µg/mL        13 mm
1  CN1CCN(CN2C(=O)NC(c3ccccc3)(c3ccccc3)C2=O)CC1  zone of inhibition at 200 µg/mL        13 mm
2  O=C1NC(c2ccccc2)(c2ccccc2)C(=O)N1CNc1nc2ccccc2s1  zone of inhibition at 200 µg/mL        32 mm
3   CN(C)CN1C(=O)NC(c2ccccc2)(c2ccccc2)C1=O  zone of inhibition at 200 µg/mL        19 mm
4  CCN(CC)CN1C(=O)N(c2ccccc2)C(=O)C1(c1ccccc1)c1ccccc1  zone of inhibition at 200 µg/mL        11 mm
5  O=C1N(c2ccccc2)C(=O)C(c2ccccc2)(c2ccccc2)N1Cn1cnc2ccccc21  zone of inhibition at 200 µg/mL        32 mm
6  O=C1NC(c2ccccc2)(c2ccccc2)C(=O)N1Cn1ccnc1  zone of inhibition at 200 µg/mL        30 mm
7  O=C1NC(c2ccccc2)(c2ccccc2)C(=O)N1Cn1nnc2ccccc21  zone of inhibition at 200 µg/mL        13 mm
8  O=C1NC(c2ccccc2)(c2ccccc2)C(=O)N1Cn1cnc2ccccc21  zone of inhibition at 200 µg/mL        32 mm
9  O=C1NC(c2ccccc2)(c2ccccc2)C(=O)N1CN1CCOCC1  zone of inhibition at 200 µg/mL        15 mm

All figures here come from ChEMBL document CHEMBL3044687.
